# PROCEDURE DETAILS: The drug is tested on WLS-039 corresponding to human gut metagenome with ENA study accession number: PRJEB37062 and ENA sample accession number: ERS12561746 for biotransformation under anaerobic condition. The drug concentrations were measured over 9 timepoints collected between 0 and 24 hours of incubation by liquid-chromatography-coupled mass spectrometry (LC–MS); note: call rule not given here
# CONDITION DETAILS: 2 µM

{"MOLECULE": "CN1CCN2c3ccccc3Cc3ccccc3C2C1 (stereo unspecified) [MIANSERIN]", "Bacterial Biotransformation": "Compound metabolized"}
{"MOLECULE": "COc1ccc2cc([C@H](C)C(=O)O)ccc2c1 [NAPROXEN]", "Bacterial Biotransformation": "Compound metabolized"}
{"MOLECULE": "CNCC[C@H](Oc1cccc2ccccc12)c1cccs1 [DULOXETINE]", "Bacterial Biotransformation": "Compound NOT metabolized"}
{"MOLECULE": "O=C(CCCN1CCC2(CC1)C(=O)NCN2c1ccccc1)c1ccc(F)cc1 [SPIPERONE]", "Bacterial Biotransformation": "Compound NOT metabolized"}
{"MOLECULE": "CC(=O)OCC(CCn1cnc2cnc(N)nc21)COC(C)=O [FAMCICLOVIR]", "Bacterial Biotransformation": "Compound metabolized"}
{"MOLECULE": "CCCC(C)(COC(N)=O)COC(=O)NC(C)C (stereo unspecified) [CARISOPRODOL]", "Bacterial Biotransformation": "Compound metabolized"}
{"MOLECULE": "CC(=O)Nc1ccc(OC(C)=O)cc1 [DIACETAMATE]", "Bacterial Biotransformation": "Compound metabolized"}
{"MOLECULE": "COc1cc(C(=O)NCc2ccc(OCCN(C)C)cc2)cc(OC)c1OC [TRIMETHOBENZAMIDE]", "Bacterial Biotransformation": "Compound NOT metabolized"}
{"MOLECULE": "CN(C)CCc1c[nH]c2ccc(CS(=O)(=O)N3CCCC3)cc12 [ALMOTRIPTAN]", "Bacterial Biotransformation": "Compound NOT metabolized"}
{"MOLECULE": "CC1Cc2ccccc2N1NC(=O)c1ccc(Cl)c(S(N)(=O)=O)c1 (stereo unspecified) [INDAPAMIDE]", "Bacterial Biotransformation": "Compound NOT metabolized"}
{"MOLECULE": "CN(C)CCOC(C)(c1ccccc1)c1ccccn1.O=C(O)CCC(=O)O (stereo unspecified) [DOXYLAMINE SUCCINATE]", "Bacterial Biotransformation": "Compound NOT metabolized"}
{"MOLECULE": "COc1ccc(Cc2nccc3cc(OC)c(OC)cc23)cc1OC [PAPAVERINE]", "Bacterial Biotransformation": "Compound metabolized"}
{"MOLECULE": "Cc1cc2c(s1)Nc1ccccc1N=C2N1CCN(C)CC1 [OLANZAPINE]", "Bacterial Biotransformation": "Compound NOT metabolized"}
{"MOLECULE": "CC(CCc1ccccc1)NCC(O)c1ccc(O)c(C(N)=O)c1 (stereo unspecified) [LABETALOL]", "Bacterial Biotransformation": "Compound NOT metabolized"}
{"MOLECULE": "CN1CCC(OC(c2ccccc2)c2ccccc2)CC1", "Bacterial Biotransformation": "Compound metabolized"}
{"MOLECULE": "Br.CN1CCC[C@@H]1Cc1c[nH]c2ccc(CCS(=O)(=O)c3ccccc3)cc12 [ELETRIPTAN HYDROBROMIDE]", "Bacterial Biotransformation": "Compound NOT metabolized"}
{"MOLECULE": "COc1ccc(CN2CCNCC2)c(OC)c1OC.Cl.Cl [TRIMETAZIDINE DIHYDROCHLORIDE]", "Bacterial Biotransformation": "Compound NOT metabolized"}
{"MOLECULE": "CC(C)(C)NCC(O)COc1cccc2c1CC(O)C(O)C2 (stereo unspecified) [NADOLOL]", "Bacterial Biotransformation": "Compound NOT metabolized"}
{"MOLECULE": "CCOC(=O)[C@H](CCc1ccccc1)N[C@@H](C)C(=O)N1CCC[C@H]1C(=O)O.O=C(O)/C=C\\C(=O)O [ENALAPRIL MALEATE]", "Bacterial Biotransformation": "Compound NOT metabolized"}
{"MOLECULE": "Cc1nc(Nc2ncc(C(=O)Nc3c(C)cccc3Cl)s2)cc(N2CCN(CCO)CC2)n1 [DASATINIB ANHYDROUS]", "Bacterial Biotransformation": "Compound metabolized"}
{"MOLECULE": "CCN1CCCC1CNC(=O)c1cc(S(=O)(=O)CC)c(N)cc1OC (stereo unspecified) [AMISULPRIDE]", "Bacterial Biotransformation": "Compound NOT metabolized"}
{"MOLECULE": "CC1=C(CC(=O)O)c2cc(F)ccc2/C1=C\\c1ccc([S+](C)[O-])cc1 (stereo unspecified)", "Bacterial Biotransformation": "Compound metabolized"}
{"MOLECULE": "CCN(C)C(=O)Oc1cccc([C@H](C)N(C)C)c1.O=C(O)C(O)C(O)C(=O)O [RIVASTIGMINE TARTRATE]", "Bacterial Biotransformation": "Compound metabolized"}
{"MOLECULE": "N#Cc1ccc2c(c1)N(CCCN1CCC(O)CC1)c1ccccc1S2 [PERICIAZINE]", "Bacterial Biotransformation": "Compound NOT metabolized"}
{"MOLECULE": "COc1ccc(/C=C/C(=O)Nc2ccccc2C(=O)O)cc1OC", "Bacterial Biotransformation": "Compound metabolized"}
{"MOLECULE": "O=C1N=C([O-])NC1(c1ccccc1)c1ccccc1.[Na+] [PHENYTOIN SODIUM]", "Bacterial Biotransformation": "Compound NOT metabolized"}
{"MOLECULE": "CN(C)C(=O)Oc1cc(OC(=O)N(C)C)cc(C(O)CNC(C)(C)C)c1 (stereo unspecified) [BAMBUTEROL]", "Bacterial Biotransformation": "Compound NOT metabolized"}
{"MOLECULE": "CN1[C@@H]2CC[C@H]1C[C@@H](OC(=O)c1c[nH]c3ccccc13)C2 [TROPISETRON]", "Bacterial Biotransformation": "Compound NOT metabolized"}
{"MOLECULE": "N#Cc1ccc2[nH]cc(CCCCN3CCN(c4ccc5oc(C(N)=O)cc5c4)CC3)c2c1 [VILAZODONE]", "Bacterial Biotransformation": "Compound metabolized"}
{"MOLECULE": "CC(=O)Oc1ccc(C(c2ccc(OC(C)=O)cc2)c2ccccn2)cc1 [BISACODYL]", "Bacterial Biotransformation": "Compound metabolized"}
{"MOLECULE": "CN(CCOc1ccc(CC2SC(=O)NC2=O)cc1)c1ccccn1.O=C(O)/C=C\\C(=O)O (stereo unspecified) [ROSIGLITAZONE MALEATE]", "Bacterial Biotransformation": "Compound NOT metabolized"}
{"MOLECULE": "O=C(O)CCC(=O)O.O=C(O[C@H]1CN2CCC1CC2)N1CCc2ccccc2[C@@H]1c1ccccc1 [SOLIFENACIN SUCCINATE]", "Bacterial Biotransformation": "Compound metabolized"}
{"MOLECULE": "O=C(O)c1cc(/N=N/c2ccc(S(=O)(=O)Nc3ccccn3)cc2)ccc1O [SULFASALAZINE]", "Bacterial Biotransformation": "Compound metabolized"}
{"MOLECULE": "CC(=O)CCCCn1c(=O)c2c(ncn2C)n(C)c1=O [PENTOXIFYLLINE]", "Bacterial Biotransformation": "Compound NOT metabolized"}
{"MOLECULE": "Nc1nc(NC2CC2)c2ncn([C@H]3C=C[C@@H](CO)C3)c2n1.Nc1nc(NC2CC2)c2ncn([C@H]3C=C[C@@H](CO)C3)c2n1.O=S(=O)(O)O [ABACAVIR SULFATE]", "Bacterial Biotransformation": "Compound NOT metabolized"}
{"MOLECULE": "CCOC(=O)C1=C(C)NC(C)=C(C(=O)OC)C1c1cccc([N+](=O)[O-])c1 (stereo unspecified) [NITRENDIPINE]", "Bacterial Biotransformation": "Compound metabolized"}
